tested on: mice; experiment: tetrabenazine (TBZ) induced ptosis assay (antidepressant activity); type: in vivo, mice (male, Charles River, CD-1); conditions: Mus musculus, ip, read-out: TBZ ED50
Counter-ions that a name gives are not always drawn.
assay metric: log10 of ED50 (log10 of the value in mg/kg)

>>> df
                                   molecule  quantitative_readout
0  CN1CCC(Oc2c(F)c(F)c(F)c(F)c2F)(c2ccccc2F)CC1.O=C(O)C(=O)O                  0.58
1  CN1CCC(Oc2c(F)c(F)c(F)c(F)c2F)(c2ccc(Cl)cc2)CC1.O=C(O)/C=C/C(=O)O                  1.59
2  Cc1ccc(C2(Oc3c(F)c(F)c(F)c(F)c3F)CCN(C)CC2)cc1 [hydrochloride]                  0.85
3  CN1CCC(Oc2c(F)c(F)c(F)c(F)c2F)(c2ccccc2)CC1.Cl                  0.11
4  CN1CCC(Oc2c(F)c(F)c(F)c(F)c2F)(c2ccc(F)cc2)CC1.Cl                  0.73
